molecular target: Kappa-type opioid receptor (Homo sapiens); note: assay procedure not described here
Sequence (P41145 whole entry): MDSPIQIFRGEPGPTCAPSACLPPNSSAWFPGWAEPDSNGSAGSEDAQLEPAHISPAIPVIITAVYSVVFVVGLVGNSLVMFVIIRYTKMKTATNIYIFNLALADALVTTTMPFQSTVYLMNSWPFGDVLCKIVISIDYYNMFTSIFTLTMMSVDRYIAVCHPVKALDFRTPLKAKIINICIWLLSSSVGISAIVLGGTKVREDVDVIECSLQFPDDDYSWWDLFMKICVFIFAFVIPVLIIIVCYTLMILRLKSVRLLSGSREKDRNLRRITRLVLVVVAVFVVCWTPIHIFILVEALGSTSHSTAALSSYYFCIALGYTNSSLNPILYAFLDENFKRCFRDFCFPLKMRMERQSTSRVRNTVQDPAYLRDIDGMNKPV
# AC50 values compiled below

Observe how each entry below is paired with its result.
[
  {
    "COMPOUND": "C1COC(NC(C2CC2)C2CC2)=N1",
    "AC50": "1.72 µM"
  },
  {
    "COMPOUND": "C#CCN[C@@H]1CCc2ccccc21",
    "AC50": "> 30 µM"
  },
  {
    "COMPOUND": "CCCOc1ccc(C(=O)OCCN(CC)CC)cc1N",
    "AC50": "> 30 µM"
  }
]

API: the following record is the query input.
Query: Need AC50 of CCNC(C)Cc1cccc(C(F)(F)F)c1 (stereo not given) , thanks.
Response: 13.4 µM
